Data origin, for the record: patent US5565566A

# Target under test: rat cortical A1 receptors (Rattus norvegicus)
# Construct: rat cortical membranes were the receptor source; from tissue; host or cells: rat cerebral cortex (male Sprague Dawley) membranes
# Sequence (P25099 whole entry): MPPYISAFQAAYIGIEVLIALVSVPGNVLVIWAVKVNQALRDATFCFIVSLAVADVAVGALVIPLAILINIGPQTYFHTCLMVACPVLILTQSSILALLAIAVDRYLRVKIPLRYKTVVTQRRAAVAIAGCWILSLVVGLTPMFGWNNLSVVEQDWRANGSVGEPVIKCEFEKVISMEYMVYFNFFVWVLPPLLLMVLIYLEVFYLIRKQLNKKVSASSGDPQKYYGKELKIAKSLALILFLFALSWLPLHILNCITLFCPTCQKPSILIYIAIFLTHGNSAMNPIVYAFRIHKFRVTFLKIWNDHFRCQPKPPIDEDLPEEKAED
# Protocol summary: displacement of [3H]-CHA from rat cortical A1 receptors
# Assay type: binding
# Study conditions: [3H]-CHA; rat cortical A1 receptors; read-out: Rat Cortical Binding Constant Ki
pKi: −log10 of the molar value. Structures can show the parent of a compound that is named as a salt.
Endpoint: pKi

# batch: return pKi for each of the 2 compounds below
1. Cn1c(S(=O)(=O)O)nc2c(N[C@H]3C[C@H]4CC[C@@H]3C4)ncnc21 (relative stereo) [compound 1062, sodium salt]
2. COc1cc(CCNc2ncnc3c2ncn3C)cc(OC)c1OC [compound 1002]

["< 4.00", "< 5.00"]

# batch: return pKi for each of the 3 compounds below
1. Cc1cc(Cl)ccc1Nc1ncnc2c1ncn2C [compound 0988, N6(4-chloro-2-methylphenyl)-9-MA]
2. CCCC(Nc1ncnc2c1ncn2C)C(=O)O (stereo not drawn) [compound 1004, N^6-1-carboxy-1-butyl-9-MA]
3. Cn1cnc2c(NCC(c3ccccc3)c3ccccc3)ncnc21 [compound 0966, N^6-2,2-diphenylethyl-9-MA]

["< 5.00", "< 4.00", "< 5.00"]

# batch: return pKi for each of the 5 compounds below
1. C[C@@H](Nc1ncnc2c1ncn2C)c1ccccc1 [compound 0984, N^6 -R-1-phenyl-1-ethyl-9-MA]
2. Cn1cnc2c(NCCc3c[nH]c4ccccc34)ncnc21 [compound 0989, N^6-2-(3-ethylindole)-9-MA]
3. CN(C)CCNc1ncnc2c1ncn2C [compound 0983, N^6-(2,2-N-dimethylethyl)-9-MA]
4. Cn1c(=O)[nH]c2c(N[C@H]3C[C@H]4CC[C@@H]3C4)ncnc21 (relative stereo) [compound 1001, N^6-(endo-2-norbornyl)-8-oxo-9-MA]
5. Cn1c(C(=O)O)nc2c(N[C@H]3C[C@H]4CC[C@@H]3C4)ncnc21 (relative stereo) [compound 1006, Sodium Salt]

1. < 5.00
2. < 5.00
3. < 5.00
4. ~5.00
5. < 5.00

# batch: return pKi for each of the 2 compounds below
1. Cn1cnc2c(NCCN)ncnc21 [compound 0982, N^6-2-Aminoethyl-9-MA]
2. Cn1cnc2c(NCCc3ccccc3Cl)ncnc21 [compound 0967, N^6-2(2-chlorophenylethyl)9-MA]

["< 5.00", "< 5.00"]
